# tested on: EGFR (UniProt P00533)
# Sequence (P00533 whole entry, looked up): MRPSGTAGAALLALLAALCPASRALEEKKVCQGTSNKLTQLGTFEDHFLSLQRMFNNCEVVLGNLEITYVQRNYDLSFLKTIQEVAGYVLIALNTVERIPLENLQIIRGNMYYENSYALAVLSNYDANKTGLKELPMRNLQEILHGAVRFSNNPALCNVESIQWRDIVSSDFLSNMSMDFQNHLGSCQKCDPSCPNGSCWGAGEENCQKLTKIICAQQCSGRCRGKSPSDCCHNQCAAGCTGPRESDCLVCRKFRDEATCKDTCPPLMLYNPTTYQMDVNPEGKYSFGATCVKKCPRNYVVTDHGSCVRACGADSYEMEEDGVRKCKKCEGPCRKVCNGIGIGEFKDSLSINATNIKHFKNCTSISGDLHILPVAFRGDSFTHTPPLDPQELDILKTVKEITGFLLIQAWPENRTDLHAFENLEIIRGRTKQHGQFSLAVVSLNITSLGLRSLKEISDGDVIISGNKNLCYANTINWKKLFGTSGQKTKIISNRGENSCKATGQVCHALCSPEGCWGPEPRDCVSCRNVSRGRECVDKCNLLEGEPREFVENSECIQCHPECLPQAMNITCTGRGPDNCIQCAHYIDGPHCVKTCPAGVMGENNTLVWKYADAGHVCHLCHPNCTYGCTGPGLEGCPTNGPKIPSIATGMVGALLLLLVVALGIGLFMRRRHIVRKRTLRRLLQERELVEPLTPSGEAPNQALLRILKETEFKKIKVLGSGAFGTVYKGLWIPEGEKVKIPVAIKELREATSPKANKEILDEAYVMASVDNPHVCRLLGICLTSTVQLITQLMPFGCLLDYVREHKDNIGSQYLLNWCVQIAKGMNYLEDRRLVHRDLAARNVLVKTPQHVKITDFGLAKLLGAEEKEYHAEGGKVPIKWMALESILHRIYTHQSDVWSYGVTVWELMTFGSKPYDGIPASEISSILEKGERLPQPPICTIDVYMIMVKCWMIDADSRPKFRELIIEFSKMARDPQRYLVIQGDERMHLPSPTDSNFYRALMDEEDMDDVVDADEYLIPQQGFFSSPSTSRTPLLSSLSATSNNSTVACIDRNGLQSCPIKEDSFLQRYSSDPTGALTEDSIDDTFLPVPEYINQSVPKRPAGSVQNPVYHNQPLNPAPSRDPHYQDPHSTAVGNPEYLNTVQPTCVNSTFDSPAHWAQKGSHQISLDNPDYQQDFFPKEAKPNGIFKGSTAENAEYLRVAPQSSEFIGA
experimental readout: IC50

input_smiles=COc1ccc(CNc2cc3c(Nc4cccc(Br)c4)c(C#N)cnc3cn2)cc1 result="> 100 nM"
